- Assay text: Cytotoxicity against human RD cells after 2 to 3 days by MTS method
- Assay type: cell-based
Exercise: for every item that follows, state its recorded log10(CC50).
Record value = log10 of CC50 given in µM.

The compound CC(=O)c1cccc(Nc2nc(-c3sc(NC(=O)c4ccccc4)nc3C)cs2)c1 showed log10(CC50) equal to 0.76

The compound CC(=O)Nc1nc(C)c(-c2csc(Nc3ccccc3)n2)s1 showed log10(CC50) equal to 1.27

The compound CC(=O)c1cccc(Nc2nc(-c3sc(NC(=O)C(C)(C)C)nc3C)cs2)c1 showed log10(CC50) equal to 0.90

The compound CC(=O)c1cccc(Nc2nc(-c3sc(NC(=O)NCc4ccc(Cl)cc4)nc3C)cs2)c1 showed log10(CC50) equal to 1.32

The compound CC(=O)Nc1nc(C)c(-c2c[nH]c(Nc3cccc(C(C)=O)c3)n2)s1 showed log10(CC50) equal to 1.93

The compound CC(=O)Nc1nc(C)c(-c2csc(Nc3ccc(C(C)=O)cc3)n2)s1 showed log10(CC50) equal to 0.75

The compound CCC(=O)Nc1nc(C)c(-c2csc(Nc3ccc(N(C)C)cc3)n2)s1 showed log10(CC50) equal to 1.71

The compound CC(=O)Nc1nc(C)c(-c2csc(Nc3cccc(C(C)=O)c3)n2)s1 showed log10(CC50) equal to 1.22

###

- Assay text: Cytotoxicity against human RD cells assessed as change in cell morphology by microscopic method
- Type: cell-based
// boundary case: CC50 equal to 30 µM maps to No; strictly smaller maps to Yes

Lab log: compare recorded CC50 with 30 µM; is it strictly lower for CC(=O)Nc1nc(C)c(-c2csc(Nc3cccc(C(C)=O)c3)n2)s1 ?
Yes

Lab log: compare recorded CC50 with 30 µM; is it strictly lower for CC(=O)c1cccc(Nc2nc(-c3sc(NC(=O)C(C)(C)C)nc3C)cs2)c1 ?
Yes

Lab log: compare recorded CC50 with 30 µM; is it strictly lower for CC(=O)c1cccc(Nc2nc(-c3sc(NC(=O)c4ccccc4)nc3C)cs2)c1 ?
Yes

Lab log: compare recorded CC50 with 30 µM; is it strictly lower for CC(=O)c1cccc(Nc2nc(-c3sc(NC(=O)OC(C)(C)C)nc3C)cs2)c1 ?
No

Lab log: compare recorded CC50 with 30 µM; is it strictly lower for CCC(=O)Nc1nc(C)c(-c2csc(Nc3ccc(N(C)C)cc3)n2)s1 ?
No

Lab log: compare recorded CC50 with 30 µM; is it strictly lower for CCC(=O)Nc1nc(C)c(-c2csc(Nc3cccc(C(C)=O)c3)n2)s1 ?
Yes

Lab log: compare recorded CC50 with 30 µM; is it strictly lower for CC(=O)Nc1nc(C)c(-c2c[nH]c(Nc3cccc(C(C)=O)c3)n2)s1 ?
No

###

Exercise: for every item that follows, state its recorded selectivity ratio.
- Assay text: Selectivity index, ratio of CC50 for human RD cells to EC50 for Enterovirus 71
- Type: toxicity
- Setup conditions: read-out: Ratio CC50/EC50
// keep it numeric: no unit symbol after the value

The compound CC(=O)c1cccc(Nc2nc(-c3sc(NC(=O)C(C)(C)C)nc3C)cs2)c1 showed selectivity ratio equal to 29.4

The compound CC(=O)Nc1nc(C)c(-c2csc(Nc3ccccc3)n2)s1 showed selectivity ratio equal to 9.64

The compound CC(=O)c1cccc(Nc2nc(-c3sc(NC(=O)NC4CCCCC4)nc3C)cs2)c1 showed selectivity ratio equal to 4.4

The compound CC(=O)Nc1nc(C)c(-c2csc(Nc3ccc(C(C)=O)cc3)n2)s1 showed selectivity ratio equal to 8.2

The compound CC(=O)c1cccc(Nc2nc(-c3sc(NC(=O)c4ccccc4)nc3C)cs2)c1 showed selectivity ratio equal to 11.3

The compound CC(=O)Nc1nc(C)c(-c2csc(Nc3cccc(C(C)=O)c3)n2)s1 showed selectivity ratio equal to 17.9

The compound CC(=O)c1cccc(Nc2nc(-c3sc(NC(=O)OC(C)(C)C)nc3C)cs2)c1 showed selectivity ratio equal to 29.7

The compound CC(=O)c1cccc(Nc2nc(-c3sc(NC(=O)NCc4ccc(Cl)cc4)nc3C)cs2)c1 showed selectivity ratio equal to 4.4

The compound CC(=O)c1cccc(Nc2nc(-c3sc(NC(=O)C(F)(F)F)nc3C)cs2)c1 showed selectivity ratio equal to 12.9

The compound CCC(=O)Nc1nc(C)c(-c2csc(Nc3ccc(N(C)C)cc3)n2)s1 showed selectivity ratio equal to 6

The compound COc1cccc(Nc2nc(-c3sc(NC(C)=O)nc3C)cs2)c1 showed selectivity ratio equal to 5.9

The compound CCC(=O)Nc1nc(C)c(-c2csc(Nc3cccc(C(C)=O)c3)n2)s1 showed selectivity ratio equal to 26.6

###

- Assay text: Cytotoxicity against human RD cells after 2 to 3 days by MTS method
- Format: cell-based
Exercise: for every item that follows, state its recorded CC50.
Quick reminder: number only, in µM, skip the unit.

The compound CCC(=O)Nc1nc(C)c(-c2csc(Nc3cccc(C(C)=O)c3)n2)s1 showed CC50 equal to 10.1

The compound CC(=O)c1cccc(Nc2nc(-c3sc(NC(=O)C(F)(F)F)nc3C)cs2)c1 showed CC50 equal to 25.8

The compound CC(=O)c1cccc(Nc2nc(-c3sc(NC(=O)OC(C)(C)C)nc3C)cs2)c1 showed CC50 equal to 42.3

The compound CC(=O)c1cccc(Nc2nc(-c3sc(NC(=O)NC4CCCCC4)nc3C)cs2)c1 showed CC50 equal to 8.87

The compound COc1cccc(Nc2nc(-c3sc(NC(C)=O)nc3C)cs2)c1 showed CC50 equal to 9.17

###

- Test system: Enterovirus A71
- Assay text: Antiviral activity against Enterovirus 71 infected in RD cells assessed as reduction in virus-induced cytopathic effect incubated for 2 to 3 days
- Assay type: functional, cell-based
- Setup conditions: Enterovirus A, RD; read-out: EC50
Parameter: pEC50
On this scale, pEC50 is minus log10 of a concentration expressed in M (mol/L).

The compound COc1cccc(Nc2nc(-c3sc(NC(C)=O)nc3C)cs2)c1 showed pEC50 equal to 5.92

The compound CC(=O)c1cccc(Nc2nc(-c3sc(NC(=O)C(F)(F)F)nc3C)cs2)c1 showed pEC50 equal to 5.70

The compound CC(=O)c1cccc(Nc2nc(-c3sc(NC(=O)NC4CCCCC4)nc3C)cs2)c1 showed pEC50 equal to 5.70

The compound CC(=O)Nc1nc(C)c(-c2csc(Nc3cccc(C(C)=O)c3)n2)s1 showed pEC50 equal to 6.04

The compound CC(=O)c1cccc(Nc2nc(-c3sc(NC(=O)NCc4ccc(Cl)cc4)nc3C)cs2)c1 showed pEC50 equal to 5.32

The compound CC(=O)Nc1nc(C)c(-c2csc(Nc3ccccc3)n2)s1 showed pEC50 equal to 5.71

The compound CC(=O)c1cccc(Nc2nc(-c3sc(NC(=O)c4ccccc4)nc3C)cs2)c1 showed pEC50 equal to 6.29

The compound CC(=O)Nc1nc(C)c(-c2csc(Nc3ccc(C(C)=O)cc3)n2)s1 showed pEC50 equal to 6.17

###

Exercise: for every item that follows, state its recorded selectivity ratio.
- Assay text: Selectivity index, ratio of CC50 for human RD cells assessed as change in cell morphology to EC50 for Enterovirus 71
- Assay type: toxicity
- Setup conditions: read-out: Ratio CC50/EC50

The molecule CCC(=O)Nc1nc(C)c(-c2csc(Nc3cccc(C(C)=O)c3)n2)s1 showed selectivity ratio equal to 23.6

The molecule CC(=O)c1cccc(Nc2nc(-c3sc(NC(=O)OC(C)(C)C)nc3C)cs2)c1 showed selectivity ratio equal to 71.1

The molecule CC(=O)Nc1nc(C)c(-c2csc(Nc3cccc(C(C)=O)c3)n2)s1 showed selectivity ratio equal to 10.6

The molecule CC(=O)c1cccc(Nc2nc(-c3sc(NC(=O)C(F)(F)F)nc3C)cs2)c1 showed selectivity ratio equal to 15

The molecule CC(=O)c1cccc(Nc2nc(-c3sc(NC(=O)C(C)(C)C)nc3C)cs2)c1 showed selectivity ratio equal to 32.7

The molecule CC(=O)c1cccc(Nc2nc(-c3sc(NC(=O)c4ccccc4)nc3C)cs2)c1 showed selectivity ratio equal to 23.1

###

- System: Enterovirus A71
- Assay text: Antiviral activity against Enterovirus 71 TW/96016/08 clinical isolates incubated for 2 to 3 days
- Format: functional
- Setup conditions: Enterovirus A
Parameter: EC50 (µM)
Quick reminder: number only, in µM, skip the unit.

The compound CC(=O)c1cccc(Nc2nc(-c3sc(NC(=O)OC(C)(C)C)nc3C)cs2)c1 showed EC50 equal to 21

###

- System: Enterovirus A71
- Assay text: Antiviral activity against Enterovirus 71 TW/70902/08 clinical isolates incubated for 2 to 3 days
- Assay type: functional
- Setup conditions: Enterovirus A
Parameter: pEC50
On this scale, pEC50 is minus log10 of a concentration expressed in M (mol/L).

The compound CC(=O)c1cccc(Nc2nc(-c3sc(NC(=O)OC(C)(C)C)nc3C)cs2)c1 showed pEC50 equal to 5.45
